pIC50: −log10 of the molar value.
pIC50, mSTING (Mus musculus, UniProt Q3TBT3): measured values

{"columns": ["Smiles representation", "pIC50"],
 "data": [
  ["CN(C)c1c(Cl)ccc2c(=O)c3ccc(C(C)(C)C)cc3n(CC(=O)O)c12", "> 4.70"],
  ["Cc1c(C(C)C)ccc2c(=O)c3ccc(Cl)c(Cl)c3n(CC(=O)O)c12", "< 3.52"],
  ["O=C(O)Cn1c2ccccc2c(=O)c2ccc(Cl)c(-c3ccccc3)c21", "4.00 to 4.70"],
  ["COc1c(Cl)ccc2c(=O)c3ccc(-c4ccc(O)cc4)cc3n(CC(=O)O)c12", "> 4.70"],
  ["[N-]=[N+]=NCc1c(Cl)ccc2c(=O)c3ccccc3n(CC(=O)O)c12", "< 3.52"],
  ["O=C(O)Cn1c2cc(C3CCCCC3)ccc2c(=O)c2ccc(Cl)c(Cl)c21", "> 4.70"],
  ["CCc1ccc2c(=O)c3ccc(Cl)c(OC)c3n(CC(=O)O)c2c1", "4.00 to 4.70"],
  ["COc1c(Cl)ccc2c(=O)c3ccc(C(C)(C)C)cc3n(CC(=O)NS(C)(=O)=O)c12", "> 4.70"],
  ["COCCOc1c(Cl)ccc2c(=O)c3ccccc3n(CC(=O)O)c12", "< 3.52"],
  ["CN(Cc1ccccc1)c1c(Cl)ccc2c(=O)c3ccccc3n(CC(=O)O)c12", "< 3.52"],
  ["O=C(O)Cn1c2ccccc2c(=O)c2ccc(Cl)c(OCCO)c21", "< 3.52"],
  ["O=C(O)Cn1c2cc(C3CCCC3)ccc2c(=O)c2ccc(Cl)c(Cl)c21", "> 4.70"],
  ["O=C(O)Cn1c2cc(Cl)ccc2c(=O)c2ccc(Nc3ccccc3)cc21", "> 4.70"],
  ["CC(C)c1ccc2c(=O)c3ccc(Cl)c(OC[C@@H](C)O)c3n(CC(=O)O)c2c1", "< 3.52"],
  ["O=C(O)Cn1c2cc(Nc3ncccn3)ccc2c(=O)c2ccc(Cl)c(Cl)c21", "> 4.70"],
  ["O=C(O)Cn1c2ccccc2c(=O)c2ccc(Cl)c(OCCCO)c21", "< 3.52"],
  ["CSc1c(Cl)ccc2c(=O)c3ccc(C(C)(C)C)cc3n(CC(=O)O)c12", "> 4.70"],
  ["COc1c(Cl)ccc2c(=O)c3ccc(C4CCCCC4)cc3n(CC(=O)O)c12", "4.00 to 4.70"],
  ["CC(C)(C)c1ccc2c(=O)c3ccc(Cl)c(Br)c3n(CC(=O)O)c2c1", "> 4.70"],
  ["O=C(O)Cn1c2cc(-c3cccc(F)c3)ccc2c(=O)c2ccc(Cl)c(Cl)c21", "4.00 to 4.70"],
  ["CSc1c(Cl)ccc2c(=O)c3ccc(C)cc3n(CC(=O)O)c12", "4.00 to 4.70"],
  ["CSc1c(Cl)ccc2c(=O)c3ccc(Nc4ncccn4)cc3n(CC(=O)O)c12", "> 4.70"],
  ["COc1c(Cl)ccc2c(=O)c3ccc(SC(C)C)cc3n(CC(=O)O)c12", "> 4.70"]
]}

###

target: STING protein (Homo sapiens (Human), UniProt Q86WV6, H232R); assay: Cell based reporter assay of IRF activation (IRF-luciferase), THP1-dual-KI R232; details: read-out: THP1-dual-KI R232_IRF(Luciferase)_Activity Maximum measured (%)
Sequence (Q86WV6 whole entry H232R): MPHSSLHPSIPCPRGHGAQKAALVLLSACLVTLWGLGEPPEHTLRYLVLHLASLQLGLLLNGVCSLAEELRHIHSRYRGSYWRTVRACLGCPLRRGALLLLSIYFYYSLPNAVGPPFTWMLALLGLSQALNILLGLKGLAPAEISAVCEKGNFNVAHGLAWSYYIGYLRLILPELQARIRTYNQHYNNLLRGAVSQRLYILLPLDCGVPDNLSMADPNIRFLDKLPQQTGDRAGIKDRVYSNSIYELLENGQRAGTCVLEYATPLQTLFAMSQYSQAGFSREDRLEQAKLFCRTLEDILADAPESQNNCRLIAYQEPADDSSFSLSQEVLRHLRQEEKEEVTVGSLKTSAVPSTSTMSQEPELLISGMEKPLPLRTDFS

{"columns": ["Molecule", "System tested", "Emax"],
 "data": [
  ["C[C@@H](Oc1c(Cl)ccc2c(=O)c3ccccc3n(CC(=O)O)c12)c1ccccc1", "STING protein (Homo sapiens (Human), UniProt Q86WV6, H232R)", "< 5%"],
  ["COCCOc1c(Cl)ccc2c(=O)c3ccccc3n(CC(=O)O)c12", "STING protein (Homo sapiens (Human), UniProt Q86WV6, H232R)", "< 5%"],
  ["C=CCOc1c(Cl)ccc2c(=O)c3ccccc3n(CC(=O)O)c12", "STING protein (Homo sapiens (Human), UniProt Q86WV6, H232R)", "> 50%"],
  ["O=C(O)Cn1c2cc(N3CCCC3)ccc2c(=O)c2ccc(Cl)c(Br)c21", "STING protein (Homo sapiens (Human), UniProt Q86WV6, H232R)", "5 to 25%"],
  ["Cc1ccc2c(=O)c3ccc(Cl)c(OCc4ccccc4)c3n(CC(=O)O)c2c1", "STING protein (Homo sapiens (Human), UniProt Q86WV6, H232R)", "25 to 50%"],
  ["O=C(O)Cn1c2cc(-c3ccoc3)ccc2c(=O)c2ccc(Cl)c(Cl)c21", "STING protein (Homo sapiens (Human), UniProt Q86WV6, H232R)", "25 to 50%"],
  ["O=C(O)Cn1c2cc(C3CCC(O)CC3)ccc2c(=O)c2ccc(Cl)c(Cl)c21 (centres unmarked)", "STING protein (Homo sapiens (Human), UniProt Q86WV6, H232R)", "5 to 25%"],
  ["CC1(C)CCCC(Nc2ccc3c(=O)c4ccc(Cl)c(Cl)c4n(CC(=O)O)c3c2)C1 (centres unmarked)", "STING protein (Homo sapiens (Human), UniProt Q86WV6, H232R)", "< 5%"],
  ["O=C(O)Cn1c2cc(-c3ccc(Cl)cc3)ccc2c(=O)c2ccc(Cl)c(Cl)c21", "STING protein (Homo sapiens (Human), UniProt Q86WV6, H232R)", "< 5%"],
  ["COc1c(Cl)ccc2c(=O)c3ccc(Nc4cccc5ccccc45)cc3n(CC(=O)O)c12", "STING protein (Homo sapiens (Human), UniProt Q86WV6, H232R)", "> 50%"],
  ["COc1c(Cl)ccc2c(=O)c3ccc(Nc4ccccc4OC(F)(F)F)cc3n(CC(=O)O)c12", "STING protein (Homo sapiens (Human), UniProt Q86WV6, H232R)", "> 50%"]
]}

###

target: STING protein (Homo sapiens (Human), UniProt Q86WV6, H232R); assay: Cell based reporter assay of IRF activation (IRF-luciferase), THP1-dual-KI R232; conditions: read-out: THP1-dual-KI R232_IRF(Luciferase)_Activity Maximum measured (%)
Reported Emax values follow for various compounds
Reported metric: Emax

{"columns": ["Compound", "Reported metric", "Observed measurement"],
 "data": [
  ["CC(C)c1ccc2c(=O)c3ccc(Cl)c(Br)c3n(CC(=O)O)c2c1 [Compound 111]", "Emax", "> 50%"],
  ["COc1c(Cl)ccc2c(=O)c3ccc(C(C)(C)C)cc3n(CC(=O)NS(C)(=O)=O)c12 [Compound 262]", "Emax", "> 50%"],
  ["O=C(O)Cn1c2cc(-c3ccc(F)cc3)ccc2c(=O)c2ccc(Cl)c(Cl)c21 [Compound 153]", "Emax", "5 to 25%"],
  ["COc1c(Cl)ccc2c(=O)c3ccc(C)cc3n(CC(=O)NS(C)(=O)=O)c12 [Compound 347]", "Emax", "> 50%"],
  ["O=C(O)Cn1c2cc(NC3CCCCC3)ccc2c(=O)c2ccc(Cl)c(Br)c21 [Compound 110]", "Emax", "> 50%"],
  ["COc1c(Cl)ccc2c(=O)c3ccc(-c4ccncc4)cc3n(CC(=O)O)c12 [Compound 278]", "Emax", "> 50%"],
  ["CC(C)Nc1ccc2c(=O)c3ccc(Cl)c(-c4ccccc4)c3n(CC(=O)O)c2c1 [Compound 336]", "Emax", "> 50%"],
  ["C[C@H](Oc1c(Cl)ccc2c(=O)c3ccccc3n(CC(=O)O)c12)c1ccccc1 [Compound 295]", "Emax", "< 5%"],
  ["COc1c(Cl)ccc2c(=O)c3ccc(C)cc3n(CC(=O)O)c12 [Compound 280]", "Emax", "> 50%"],
  ["O=C(O)Cn1c2cc(-c3ccccc3)ccc2c(=O)c2ccc(Cl)c(Br)c21 [Compound 177]", "Emax", "< 5%"],
  ["O=C(O)Cn1c2cc(C3CCCCC3)ccc2c(=O)c2ccc(Cl)c(Br)c21 [Compound 147]", "Emax", "> 50%"]
]}

###

molecular target: mSTING-R232 (Mus musculus); assay: STING differential scanning fluorimetry (DSF) assay, mouse STING; settings: net shift in melting temperature
Reported metric: MOUSE DSF_6xHIS-SUMO Tm Shift (° C.)

{"columns": ["Compound", "System tested", "Reported metric", "Observed measurement"],
 "data": [
  ["CC(C)(C)CNc1ccc2c(=O)c3ccc(Cl)c(Cl)c3n(CC(=O)O)c2c1 [Compound 138]", "mSTING-R232 (Mus musculus)", "MOUSE DSF_6xHIS-SUMO Tm Shift (° C.)", "C (“C” = 5-15° C.)"],
  ["O=C(O)Cn1c2cc(Nc3ncccn3)ccc2c(=O)c2ccc(Cl)c(Cl)c21 [Compound 216]", "mSTING-R232 (Mus musculus)", "MOUSE DSF_6xHIS-SUMO Tm Shift (° C.)", "D (“D” > 15° C.)"],
  ["O=C(O)Cn1c2cc(N3CCc4ccccc43)ccc2c(=O)c2ccc(Cl)c(Cl)c21 [Compound 144]", "mSTING-R232 (Mus musculus)", "MOUSE DSF_6xHIS-SUMO Tm Shift (° C.)", "C (“C” = 5-15° C.)"],
  ["Cc1ccc2c(=O)c3ccc(Cl)c(-c4ccccc4)c3n(CC(=O)O)c2c1 [Compound 326]", "mSTING-R232 (Mus musculus)", "MOUSE DSF_6xHIS-SUMO Tm Shift (° C.)", "D (“D” > 15° C.)"],
  ["O=C(O)Cn1c2cc(Nc3ccccc3)ccc2c(=O)c2ccc(Cl)c(Cl)c21 [Compound 181]", "mSTING-R232 (Mus musculus)", "MOUSE DSF_6xHIS-SUMO Tm Shift (° C.)", "D (“D” > 15° C.)"],
  ["CSc1c(Cl)ccc2c(=O)c3ccc(Nc4cnccn4)cc3n(CC(=O)O)c12 [Compound 291]", "mSTING-R232 (Mus musculus)", "MOUSE DSF_6xHIS-SUMO Tm Shift (° C.)", "D (“D” > 15° C.)"],
  ["O=C(O)Cn1c2cc(-c3ccc(F)cc3)ccc2c(=O)c2ccc(Cl)c(Cl)c21 [Compound 153]", "mSTING-R232 (Mus musculus)", "MOUSE DSF_6xHIS-SUMO Tm Shift (° C.)", "D (“D” > 15° C.)"],
  ["Cc1ccc2c(=O)c3ccc(Cl)cc3n([C@H](C)C(=O)O)c2c1 [Compound 179]", "mSTING-R232 (Mus musculus)", "MOUSE DSF_6xHIS-SUMO Tm Shift (° C.)", "B (“B” = 0-5° C.)"],
  ["CN(C)c1c(Cl)ccc2c(=O)c3ccc(Nc4ccccc4)cc3n(CC(=O)O)c12 [Compound 332]", "mSTING-R232 (Mus musculus)", "MOUSE DSF_6xHIS-SUMO Tm Shift (° C.)", "D (“D” > 15° C.)"],
  ["Cc1cc2c(cc1F)c(=O)c1ccc(Cl)c(Cl)c1n2CC(=O)O [Compound 135]", "mSTING-R232 (Mus musculus)", "MOUSE DSF_6xHIS-SUMO Tm Shift (° C.)", "B (“B” = 0-5° C.)"],
  ["O=C(O)Cn1c2cc(-c3cccc(C(F)(F)F)c3)ccc2c(=O)c2ccc(Cl)c(Cl)c21 [Compound 161]", "mSTING-R232 (Mus musculus)", "MOUSE DSF_6xHIS-SUMO Tm Shift (° C.)", "D (“D” > 15° C.)"],
  ["Cc1cccc(-c2ccc3c(=O)c4ccc(Cl)c(Cl)c4n(CC(=O)O)c3c2)c1 [Compound 151]", "mSTING-R232 (Mus musculus)", "MOUSE DSF_6xHIS-SUMO Tm Shift (° C.)", "C (“C” = 5-15° C.)"],
  ["CC(C)c1ccc2c(=O)c3ccc(Br)c(Cl)c3n(CC(=O)O)c2c1 [Compound 170]", "mSTING-R232 (Mus musculus)", "MOUSE DSF_6xHIS-SUMO Tm Shift (° C.)", "C (“C” = 5-15° C.)"]
]}
